- System: antibodies in sera from SARS patients (sera 1a, 1b, 2, 6, 37, 62, London, SARS-yellow, SARS-green)
- Assay type: binding, human
- Set-up: unit not given here
# reported Binding of serum 37 to linear peptides of protein N of SARS-CoV Urbani; entries follow
// keep it numeric: no unit symbol after the value

Fill in: Binding of serum 37 to linear peptides of protein N of SARS-CoV Urbani of SRIGMEVTPSGTWLT is ___
0.7

Looking for the measured Binding of serum 37 to linear peptides of protein N of SARS-CoV Urbani of ALNTPKDHIGTRNPN , can you help?
0.7

----------
- Test system: antibodies in sera from SARS patients (sera 1a, 1b, 2, 6, 37, 62, London, SARS-yellow, SARS-green)
- Format: binding, human
MEASURE: Binding of serum 2 to linear peptides of protein X1 of SARS-CoV Urbani
I'd appreciate a reply containing only the number, no unit.

Look over these answered cases.
IIALNKRWQLALYKG | 0.5
IENATFFIFNKLVKD | 0.5
LLFVTIYSHLLLVAA | 0.5
QCINACRIIMRCWLC | 0.5
IPYNSVTDTIVVTEG | 0.5
LYALIYFLQCINACR | 0.5

Quick check: Binding of serum 2 to linear peptides of protein X1 of SARS-CoV Urbani of CIPYNSVTDTIVVTE ?
0.5

Field request: Binding of serum 2 to linear peptides of protein X1 of SARS-CoV Urbani | item: QFLYLYALIYFLQCI
0.5

Data request, read-out Binding of serum 2 to linear peptides of protein X1 of SARS-CoV Urbani, for LIYFLQCINACRIIM
0.6

For LLYDANYFVCWHTHN , what is its reported Binding of serum 2 to linear peptides of protein X1 of SARS-CoV Urbani?
0.6

Record request: Binding of serum 2 to linear peptides of protein X1 of SARS-CoV Urbani value, item SLPFGWLVIGVAFLA
0.5

Quick one: Binding of serum 2 to linear peptides of protein X1 of SARS-CoV Urbani of NPLLYDANYFVCWHT ?
0.6

Entry DTIVVTEGDGISTPK has what Binding of serum 2 to linear peptides of protein X1 of SARS-CoV Urbani?
0.3

Find the recorded Binding of serum 2 to linear peptides of protein X1 of SARS-CoV Urbani belonging to WKCKSKNPLLYDANY and report it.
0.6

Data request, read-out Binding of serum 2 to linear peptides of protein X1 of SARS-CoV Urbani, for IDGSSGVANPAMDPI
0.7

What does the record list as Binding of serum 2 to linear peptides of protein X1 of SARS-CoV Urbani for EAQFLYLYALIYFLQ ?
0.6

----------
Here, each record is paired with measured Binding of Control serum LUMC to looped peptides of the protein M of SARS-CoV Urbani data.
- System: control sera (pooled serum of ten healthy LUMC hospital workers; commercial negative donor pooled serum from the Dutch bloodbank)
- Format: binding, human
- Parameters: unit not given here
Hey, just send me the number, nothing else.

KLVFLWLLWPVTLAC | 0.6
RNRFLYIIKLVFLWL | 0.8
NPETNILLNVPLRGT | 0.9
YNRYRIGNYKLNTDH | 0.9
LAAVYRINWVTGGIA | 0.6
ACFVLAAVYRINWVT | 0.7
LVIGFLFLAWIMLLQ | 0.7
VTGGIAIAMACIVGL | 0.8

Requested field: Binding of Control serum LUMC to looped peptides of the protein M of SARS-CoV Urbani. Item: GIAIAMACIVGLMWL
0.8
